Listing of entries alongside the reported Cmax.
protocol_details: Cmax in CD-1 mouse at 10 mg/kg, ip measured upto 12 hrs by LC-MS/MS analysis
Format: ADME, organism-based
Design: time < 12 hrs, dose 10 mg/kg, route ip
test_conditions: in vivo
Number first, unit second: that is the form wanted.

- Nc1ccccc1NC(=O)c1ccc(CNC(=O)OCc2cccnc2)cc1: 6250 ng/mL

# evaluate next
Measured Cmax of Nc1ccccc1NC(=O)c1ccc(CNC(=O)OC2CCCCC2)cc1 : 2700 ng/mL

----------
protocol_details: Half life in CD-1 mouse at 10 mg/kg, ip measured upto 12 hrs by LC-MS/MS analysis
Type: ADME, organism-based
test_conditions: in vivo
reported_endpoint: half-life (h)
The reply should be a number in h, with the unit left off.

- Nc1ccccc1NC(=O)c1ccc(CNC(=O)OC2CCCCC2)cc1: 5.18

Form field half-life, entry Nc1ccccc1NC(=O)c1ccc(CNC(=O)OCc2cccnc2)cc1 : 3.18

Source: ChEMBL document CHEMBL5375983
